Origin of measurements: the supplement of paper PMC9112550

System: Escherichia coli TOP10;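 note: peptides expressed intracellularly from a pBAD plasmid library in pooled LB shake-flask culture, induced with 0.3% L-arabinose, DNA abundance read by NGS, three biological replicates, DESeq2 with apeglm shrinkage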
Test: shrunken log2 fold change of peptide-encoding DNA abundance (4.5 h post-induction vs induction); higher = less antimicrobial activity (less host growth inhibition)
Settings: time post-induction: 4.5 h; library: site-saturation at positions 5, 18, 19, 20
I'd be grateful if you could share measured shrunken log2 fold change for these entries.
One number for each entry.

Worked cases, answers included:
RRIRVRPPRLPRPRPRPFRHPRP = -0.185
RRIRCRPPRLPRPRPRPYLGPRP = -0.213
RRIRDRPPRLPRPRPRPENTPRP = 0.17
RRIRPRPPRLPRPRPRPNMEPRP = 0.0784
RRIRSRPPRLPRPRPRPTSLPRP = 0.074

Need shrunken log2 fold change for each of these sequences.
1. RRIRSRPPRLPRPRPRPYHSPRP
2. RRIRPRPPRLPRPRPRPGSDPRP
3. RRIRHRPPRLPRPRPRPEALPRP
4. RRIRERPPRLPRPRPRPLGKPRP
5. RRIRFRPPRLPRPRPRPHQLPRP
6. RRIRKRPPRLPRPRPRPLQGPRP
7. RRIRKRPPRLPRPRPRPAYGPRP
8. RRIRTRPPRLPRPRPRPQNIPRP

OUT:
[-0.181, -0.00287, -0.0062, 0.189, -0.374, 0.154, 0.397, -0.587]
